These entries and their values trace back to the RNAGym collection of RNA variant scans (doi:10.1073/pnas.2313332121).

Kindly supply the reported polymerase ribozyme fitness (log ratio) values for the records listed here.
B1: TPR 5TU (parent)
chain: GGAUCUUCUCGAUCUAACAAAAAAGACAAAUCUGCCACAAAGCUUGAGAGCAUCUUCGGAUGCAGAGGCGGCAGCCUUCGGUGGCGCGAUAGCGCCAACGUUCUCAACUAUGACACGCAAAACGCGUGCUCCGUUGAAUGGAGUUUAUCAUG

Variants of: B1
Assay: polymerase ribozyme fitness, log enrichment relative to wild type (log ratio); higher = more active; in vitro selection for triplet polymerase activity
Fewer inactive variants are shown than the library holds.

Here is how some variants turned out for polymerase ribozyme fitness (log ratio).
U7G C35A A40G U77C A150U :: ≤ -4.2
A12U G25C A47G U56A C93G C108G :: ≤ -4.2

Hi team, please reply with polymerase ribozyme fitness (log ratio) for each item in this list.
1. A19G A30G C38U C85G A89U U130G
2. U45A G65C A73G G84A A142G

["≤ -4.2", "≤ -4.2"]
